test system: NCI-H2087; experiment: relative viability (nuclei count vs DMSO), 5 days (fraction); higher = more cells survive; settings: first compound 1.265 µM
Readout name: relative viability
Field format: numeric only.

Measured relative viability of Cc1sc2c(c1C)C(c1ccc(Cl)cc1)=N[C@@H](CC(=O)OC(C)(C)C)c1nnc(C)n1-2 [JQ1] + CC(=O)c1c(C)c2cnc(Nc3ccc(N4CCNCC4)cn3)nc2n(C2CCCC2)c1=O [Palbociclib] (partner 0.5 µM) : 0.157

Measured relative viability of Cc1sc2c(c1C)C(c1ccc(Cl)cc1)=N[C@@H](CC(=O)OC(C)(C)C)c1nnc(C)n1-2 [JQ1] + CC(=O)Nc1cccc(-n2c(=O)n(C3CC3)c(=O)c3c(Nc4ccc(I)cc4F)n(C)c(=O)c(C)c32)c1 [Trametinib] (partner 0.02 µM) : 0.142

Measured relative viability of Cc1sc2c(c1C)C(c1ccc(Cl)cc1)=N[C@@H](CC(=O)OC(C)(C)C)c1nnc(C)n1-2 [JQ1] + O=C(CCCCCCC(=O)Nc1ccccc1)NO [Vorinostat] (partner 1 µM) : 0.316

Measured relative viability of Cc1sc2c(c1C)C(c1ccc(Cl)cc1)=N[C@@H](CC(=O)OC(C)(C)C)c1nnc(C)n1-2 [JQ1] + Nc1ncn([C@H]2C[C@H](O)[C@@H](CO)O2)c(=O)n1 [Decitabine] (partner 2 µM) : 0.151

---

tested on: NCI-H1437; test: relative viability (nuclei count vs DMSO), 5 days (fraction); higher = more cells survive; settings: first compound 2.53 µM
Readout name: relative viability
Field format: numeric only.

Measured relative viability of Cc1cnc(-c2cnc(NCCNc3ccc(C#N)cn3)nc2-c2ccc(Cl)cc2Cl)[nH]1 + CC(=O)c1c(C)c2cnc(Nc3ccc(N4CCNCC4)cn3)nc2n(C2CCCC2)c1=O [Palbociclib] (partner 0.5 µM) : 0.285

Measured relative viability of O=c1[nH]c2ccccc2n1C1CCN(CCCC(c2ccc(F)cc2)c2ccc(F)cc2)CC1 [Pimozide] + Cc1nc(Nc2ncc(C(=O)Nc3c(C)cccc3Cl)s2)cc(N2CCN(CCO)CC2)n1 [Dasatinib] (partner 0.075 µM) : 0.289

---

test system: NCI-H358; test: relative viability (nuclei count vs DMSO), 5 days (fraction); higher = more cells survive; details: first compound 0.005 µM
Readout name: relative viability
Field format: numeric only.

Measured relative viability of Nc1ccn([C@@H]2O[C@H](CO)[C@@H](O)[C@@H]2O)c(=O)n1 [Cytarabine] + Nc1nc2[nH]cc(CCc3ccc(C(=O)N[C@@H](CCC(=O)O)C(=O)O)cc3)c2c(=O)[nH]1 [Pemetrexed] (partner 0.2 µM) : 0.195

Measured relative viability of COc1cc2nccc(Oc3ccc(NC(=O)Nc4cc(C)on4)c(Cl)c3)c2cc1OC [Tivozanib] + C[C@]1(O)C[C@@H](c2nc(-c3ccc4ccc(-c5ccccc5)nc4c3)c3c(N)nccn32)C1 [Linsitinib] (partner 1 µM) : 0.765

Measured relative viability of Nc1ccn([C@@H]2O[C@H](CO)[C@@H](O)[C@@H]2O)c(=O)n1 [Cytarabine] + Nc1ncn([C@H]2C[C@H](O)[C@@H](CO)O2)c(=O)n1 [Decitabine] (partner 2 µM) : 0.229

Measured relative viability of Nc1ccn([C@@H]2O[C@H](CO)[C@@H](O)[C@@H]2O)c(=O)n1 [Cytarabine] + CC(=O)c1c(C)c2cnc(Nc3ccc(N4CCNCC4)cn3)nc2n(C2CCCC2)c1=O [Palbociclib] (partner 0.5 µM) : 0.126

Measured relative viability of Nc1ccn([C@@H]2O[C@H](CO)[C@@H](O)[C@@H]2O)c(=O)n1 [Cytarabine] + O=C(c1cc(Cc2n[nH]c(=O)c3ccccc23)ccc1F)N1CCN(C(=O)C2CC2)CC1 [Olaparib] (partner 8 µM) : 0.443

Measured relative viability of Nc1ccn([C@@H]2O[C@H](CO)[C@@H](O)[C@@H]2O)c(=O)n1 [Cytarabine] + NC(=O)Nc1cc(-c2cccc(F)c2)sc1C(=O)N[C@H]1CCCNC1 [AZD7762] (partner 0.2 µM) : 0.419

Measured relative viability of Nc1ccn([C@@H]2O[C@H](CO)[C@@H](O)[C@@H]2O)c(=O)n1 [Cytarabine] + Cc1nc(NC(=O)N2CCC[C@H]2C(N)=O)sc1-c1ccnc(C(C)(C)C(F)(F)F)c1 [Alpelisib] (partner 2 µM) : 0.573

Measured relative viability of COc1cc2nccc(Oc3ccc(NC(=O)Nc4cc(C)on4)c(Cl)c3)c2cc1OC [Tivozanib] + COc1cccc2cc(-c3nc([C@H]4CC[C@H](C(=O)O)CC4)n4ncnc(N)c34)[nH]c12 [OSI-027] (partner 0.5 µM) : 0.751

Measured relative viability of Nc1ccn([C@@H]2O[C@H](CO)[C@@H](O)[C@@H]2O)c(=O)n1 [Cytarabine] + CCNC(=O)c1noc(-c2cc(C(C)C)c(O)cc2O)c1-c1ccc(CN2CCOCC2)cc1 [Luminespib] (partner 0.01 µM) : 0.338

Measured relative viability of Nc1ccn([C@@H]2O[C@H](CO)[C@@H](O)[C@@H]2O)c(=O)n1 [Cytarabine] + CC(=O)Nc1cccc(-n2c(=O)n(C3CC3)c(=O)c3c(Nc4ccc(I)cc4F)n(C)c(=O)c(C)c32)c1 [Trametinib] (partner 0.02 µM) : 0.126

Measured relative viability of Nc1ccn([C@@H]2O[C@H](CO)[C@@H](O)[C@@H]2O)c(=O)n1 [Cytarabine] + CS(=O)(=O)N1CCN(Cc2cc3nc(-c4cccc5[nH]ncc45)nc(N4CCOCC4)c3s2)CC1 [Pictilisib] (partner 1 µM) : 0.318

Measured relative viability of COc1cc2nccc(Oc3ccc(NC(=O)Nc4cc(C)on4)c(Cl)c3)c2cc1OC [Tivozanib] + CS(=O)(=O)CCNCc1ccc(-c2ccc3ncnc(Nc4ccc(OCc5cccc(F)c5)c(Cl)c4)c3c2)o1 [Lapatinib] (partner 2 µM) : 0.476

Measured relative viability of COc1cc2nccc(Oc3ccc(NC(=O)Nc4cc(C)on4)c(Cl)c3)c2cc1OC [Tivozanib] + Nc1nc2[nH]cc(CCc3ccc(C(=O)N[C@@H](CCC(=O)O)C(=O)O)cc3)c2c(=O)[nH]1 [Pemetrexed] (partner 0.2 µM) : 0.181

The origin of these recorded values is the supplement of paper PMC10307832.
